Test system: PEO-1
Assay: Excess HSA synergy score (sum over dose matrix of excess over highest single agent) (score (summed % response)); higher = less synergy / more antagonism (negative = synergy)
Conditions: 72 h; read-out: viability/apoptosis luminescence (CellTiter-Glo or Caspase3-Glo / not stated per table); matrix design: 6x6, 5-fold dilutions (primary screen)
Where a name gives a salt, the structure may show the parent alone. Over roughly 1,500 compounds, “Excess HSA synergy score (sum over dose matrix of excess over highest single agent)” has its median near 43; the lowest 2% begin near -900. This is one part of a sample in which the lowest values are shown more often than they occur.
experimentalEndpoint: Excess HSA synergy score
// keep it numeric: no unit symbol after the value

[[record]]
compound = "COc1ccc(-c2nc(N3CCOCC3)c3sc(CN(C)c4ncc(C(=O)NO)cn4)cc3n2)cn1 + CC[C@H](NC(=O)[C@H](C)NC)C(=O)N1C[C@@H](O)C[C@H]1Cc1c(-c2[nH]c3cc(F)ccc3c2C[C@@H]2C[C@H](O)CN2C(=O)[C@H](CC)NC(=O)[C@H](C)NC)[nH]c2cc(F)ccc12"
measuredvalue = -204

[[record]]
compound = "Cc1nc(N)ncc1-c1nc(N2CCOCC2)c2sc(C(C)(C)O)cc2n1 + CC[C@H](NC(=O)[C@H](C)NC)C(=O)N1C[C@@H](O)C[C@H]1Cc1c(-c2[nH]c3cc(F)ccc3c2C[C@@H]2C[C@H](O)CN2C(=O)[C@H](CC)NC(=O)[C@H](C)NC)[nH]c2cc(F)ccc12"
measuredvalue = -47.1


Challenge: Form field: Excess HSA synergy score recorded for CO/N=C(\C(=O)N[C@@H]1C(=O)N2C(C(=O)O)=C(Cn3ccc(=N)n3CCO)CS[C@H]12)c1csc(N)n1 [Cefoselis sulfate] + CC[C@H](NC(=O)[C@H](C)NC)C(=O)N1C[C@@H](O)C[C@H]1Cc1c(-c2[nH]c3cc(F)ccc3c2C[C@@H]2C[C@H](O)CN2C(=O)[C@H](CC)NC(=O)[C@H](C)NC)[nH]c2cc(F)ccc12 with PEO-1 (enter value)
Response given: 200

Challenge: Same again, this time with CCCCCCCCc1ccc(CCC(N)(CO)CO)cc1 [Fingolimod hydrochloride] + CC[C@H](NC(=O)[C@H](C)NC)C(=O)N1C[C@@H](O)C[C@H]1Cc1c(-c2[nH]c3cc(F)ccc3c2C[C@@H]2C[C@H](O)CN2C(=O)[C@H](CC)NC(=O)[C@H](C)NC)[nH]c2cc(F)ccc12
Response given: -38.3

Challenge: Also check Cc1noc(-c2ccc(CSCCC(=O)O)cc2)c1NC(=O)OC(C)c1ccccc1Cl (configuration not stated) + CC[C@H](NC(=O)[C@H](C)NC)C(=O)N1C[C@@H](O)C[C@H]1Cc1c(-c2[nH]c3cc(F)ccc3c2C[C@@H]2C[C@H](O)CN2C(=O)[C@H](CC)NC(=O)[C@H](C)NC)[nH]c2cc(F)ccc12
Response given: 351

Challenge: Same question, N#Cc1ccc(COC[C@H]2O[C@@H](n3c(NCc4ccc(Cl)c(Cl)c4)nc4c(N)ncnc43)[C@H](O)[C@@H]2O)cc1 + CC[C@H](NC(=O)[C@H](C)NC)C(=O)N1C[C@@H](O)C[C@H]1Cc1c(-c2[nH]c3cc(F)ccc3c2C[C@@H]2C[C@H](O)CN2C(=O)[C@H](CC)NC(=O)[C@H](C)NC)[nH]c2cc(F)ccc12 this time
Response given: -237

Challenge: Can you check O=C(Nc1nc2cccc(-c3ccc(CN4CCS(=O)(=O)CC4)cc3)n2n1)C1CC1 [Filgotinib] + CC[C@H](NC(=O)[C@H](C)NC)C(=O)N1C[C@@H](O)C[C@H]1Cc1c(-c2[nH]c3cc(F)ccc3c2C[C@@H]2C[C@H](O)CN2C(=O)[C@H](CC)NC(=O)[C@H](C)NC)[nH]c2cc(F)ccc12 next?
Response given: 94.7
